Test system: MS2 coat protein
procedureText: apparent KD of MS2 coat protein; designed switch direction (-1 OFF switch, 1 ON switch): 1; higher = weaker reporter binding
recordedConditions: input ligand: none

seqText: CUGAGCGAUCAAGGAUAUCACGUCGAUUAGACGUGAGAAGGUGAUAAUUACAUGAGGAUCACCCAUGUAUAACAUGAAGCUCAG [SSNG1/9-A2] (Eterna round: R96, puzzle: Same State NG 1)
readoutUnit: nM
apparent KD of MS2 coat protein: 19.8
//
seqText: ACUAGAUCGAAAGAUCUAGAAAACGAGUAACAUGAGGAUCACCCAUGUUCAUGUUGCUCGUCUUAAGCCGAAAGGCG [JL ALT 15] (Eterna round: R96, puzzle: Sensor for hsa-mir-208a)
readoutUnit: nM
apparent KD of MS2 coat protein: 22.8
//
seqText: UGCAUACGCCUACAAGAGGAGUCCUGCAGACAUGAGGAUCACCCAUGUAACUCGAAUUCAGUUCGUUCGUCUGUCGU [JR_hsamir208a_Sub1412] (Eterna round: R96, puzzle: Sensor for hsa-mir-208a)
readoutUnit: nM
apparent KD of MS2 coat protein: 52.9
//
seqText: UAUCUCAUGUAAGGAUAUGCAGCCGUUUCGGCUGCAGAAGGUACUAUAAUACAUGAGGAUCACCCAUGUCUCUAUUAUUUAGUU [JL SSNG1 1.45] (Eterna round: R96, puzzle: Same State NG 1)
readoutUnit: nM
apparent KD of MS2 coat protein: 63.8
//
seqText: UGGCUGGUGCUAGGAUAUGCAUGAGGCCUCCUCGUAGAAGGAGCACGACAUGAGGAUCACCCAUGUGGCCGUCCGUGGGCGGCU [salish99_SSNG1_r04_015] (Eterna round: R96, puzzle: Same State NG 1)
readoutUnit: nM
apparent KD of MS2 coat protein: 60.1
//
seqText: GUGAAGAAUUAAGGAUAUCGAGUCAAGAUGUUAAACAUGAGGAUCACCCAUGUGGGUUGCGGUAUCGAGAAGGUAAAUUACAGG [salish99_SSNG2_r04_502] (Eterna round: R96, puzzle: Same State NG 2)
readoutUnit: nM
apparent KD of MS2 coat protein: 31.7
//
seqText: GAGUAGUACGGAGGAUAUGGGCAGAACAAGACACCAGAAGGCCGACAUGAGGAUGCUGGACAUGAGGAUCACCCAUGUACCUGA [Same State 1 S3] (Eterna round: R96, puzzle: Same State NG 1)
readoutUnit: nM
apparent KD of MS2 coat protein: 85.4
//
seqText: AAAAAACAUGAGGAUCACCCAUGUAAAAAAAUGGGAGGAUAUACAAAAACAAAAAAAAAAGUAGAAGGCCUGAAAA [same state 9] (Eterna round: R96, puzzle: Same State 1)
readoutUnit: nM
apparent KD of MS2 coat protein: 520
//
seqText: ACAUGAGACUUAGGAUAUCUUGUACCUACAUGUGACAUGAGGAUCACCCAUGUGGUAAGUAUGACAGAGAAGGAAGAGAUAUGU [Equivalance 68 - Jieux - Same State NG 2] (Eterna round: R96, puzzle: Same State NG 2)
readoutUnit: nM
apparent KD of MS2 coat protein: 79.7
//
seqText: UGGUACAUGGGAGGAUAUCAUGUAGACACAUGAGGAUCACCCAUGUCGAUGGAGACAUCGGAGAUUGAGAAGGCCCAUGUACCU [JL SSNG1 3.55] (Eterna round: R96, puzzle: Same State NG 2)
readoutUnit: nM
apparent KD of MS2 coat protein: 647
//
seqText: UUAACAUGAGGAUCACCCAUGUAUGCGUAGCUUGCAUUUUGACAGGAUAUUGAAUAUCUAUAUAGCAAGAAGGGUCGUUAGUCU [JR_SSNG3_Sub008] (Eterna round: R96, puzzle: Same State NG 3)
readoutUnit: nM
apparent KD of MS2 coat protein: 94.9

###

Test system: MS2 coat protein
procedureText: apparent KD of MS2 coat protein; designed switch direction (-1 OFF switch, 1 ON switch): -1; higher = weaker reporter binding
recordedConditions: input ligand: microRNA oligo, concentration not stated
Each entry below carries its recorded apparent KD of MS2 coat protein.

seqText: CCGCUCCGUGUAGGAUAUCGCUGUACCCUGCGGCGAGAAGGACAUGAGGAUCACCCAUGUAUGUUAUUAUCACGCGUGGCGCAC [Design 72] (Eterna round: R96, puzzle: Exclusion NG 1)
readoutUnit: µM
apparent KD of MS2 coat protein: 0.0124

seqText: ACAUGAGGAUCACCCAUGUACAGGGUUUAGUUUCAUCGUUUGAAGGAUAUACUCCGUUAGUUGUUGUAGAAGGUCACAUUUUGG [JR_ExcNG3_Sub005] (Eterna round: R96, puzzle: Exclusion NG 3)
readoutUnit: µM
apparent KD of MS2 coat protein: 0.0892

seqText: UCACGGGAUUGAGGAUAUAUAUUAAUUUUUACAAUAGAAGGCAAAUUUUUAGUUUUUUCACUUUACAUGAGGAUCACCCAUGUU [JR_ExcBG1_Sub081] (Eterna round: R96, puzzle: Exclusion NG 1)
readoutUnit: µM
apparent KD of MS2 coat protein: 0.0205

seqText: GUGUACAGAGGAUAUAUAUGAGCUAGGAAACUAGCAAGAUCACAUGAGGAUCACCCAUGUAGAAGGCUGUACAC [Ex2: 735] (Eterna round: R96, puzzle: Exclusion 2)
readoutUnit: µM
apparent KD of MS2 coat protein: 0.102

seqText: AAAUGUGCGAGAGGAUAUCGUGUACAAAGUACACGAGAAGGCUUCACAUGAGGAUCACCCAUGUACCGAGGUGAAACACCUUGA [Omei Exc(NG)1 Bv4] (Eterna round: R96, puzzle: Exclusion NG 1)
readoutUnit: µM
apparent KD of MS2 coat protein: 0.149

seqText: GCAGCUAGUUCAGGAUAUCAGCACGAUUAGUGCUGAGAAGGGAACAUGAGGAUCACCCAUGUGAUCAAUGCUGCAAUUUUAAUU [ENG1/12-A1] (Eterna round: R96, puzzle: Exclusion NG 1)
readoutUnit: µM
apparent KD of MS2 coat protein: 0.235

seqText: UAAGAUUACCGAGGAUAUGGUAAUUUUUGUUAACCAGAAGGCGGACUCAACAUGAGGAUCACCCAUGUAUAAAGGGUAUUAGUU [JR_ExcNG1_Sub040] (Eterna round: R96, puzzle: Exclusion NG 1)
readoutUnit: µM
apparent KD of MS2 coat protein: 0.0742

seqText: GUUUUAUAUGAAGGAUAUACUUAACAUGAGGAUCACCCAUGUGGUGUUGUGAGUGAGUGAGUUUAGUAGAAGGUCAAUUCUUUU [JMF's solution 99] (Eterna round: R96, puzzle: Exclusion NG 2)
readoutUnit: µM
apparent KD of MS2 coat protein: 0.593

seqText: AUGGGUCCUCACGGAGCUACAUGAGGAUCACCCAUGUGGAUUGAGGAUAUCGUAACCCGACGGGACGAGAAGGCAGUUUACUGU [Ex NG3 #98] (Eterna round: R96, puzzle: Exclusion NG 3)
readoutUnit: µM
apparent KD of MS2 coat protein: 0.023

seqText: CCCACAGGACAUGAGGAUCACCCAUGUGCGAUAUCCUGAGCGCAGGAUAUUUUCCCACGAAAGGAAGAGAAGGGCGCCGAAAGC [Eternabot solution 1] (Eterna round: R96, puzzle: Exclusion NG 3)
readoutUnit: µM
apparent KD of MS2 coat protein: 0.0296

seqText: AUCAGCUCGUGAGGAUAUGAACAUGAGGAUCACCCAUGUAAGAUCAAGCUGCUUCGGCAGCAAGUUCAGAAGGUACGAGCUGAU [ENG2/10-C3] (Eterna round: R96, puzzle: Exclusion NG 2)
readoutUnit: µM
apparent KD of MS2 coat protein: 0.0781

seqText: GAGCAGCCGAUAGGAUAUUCCGAGCUAAAGAGCAGUAGGACAUGAGGAUCACCCAUGUGUGCAUGGAAGAAGGGUCACUUCCAG [Eternabot solution 23] (Eterna round: R96, puzzle: Exclusion NG 2)
readoutUnit: µM
apparent KD of MS2 coat protein: 0.0242

seqText: AGAUGCUCAAGUCGACAUGAGGAUCACCCAUGUACAGUUAAUGAGGAUAUCCGAGAUAAAUAAUAGGAGAAGGCGUGAACAUGA [Ex NG3 #8] (Eterna round: R96, puzzle: Exclusion NG 3)
readoutUnit: µM
apparent KD of MS2 coat protein: 0.0506

seqText: UUACGAUUGCUAGGAUAUCCACGAAUAGCUCCGGGAGAAGGAGCUCUCGUACAUGAGGAUCACCCAUGUCAGGGUGUCCAAUUU [Onraedin] (Eterna round: R96, puzzle: Exclusion NG 1)
readoutUnit: µM
apparent KD of MS2 coat protein: 0.0214

seqText: ACAUGAGGAUCACCCAUGUACAGGGUUUAGUUUCAUCGUUUGAAGGAUAUACUCCGUUAGUUGUCGUAGAAGGUCACAUUUUGG [JR_ExcNG3_Sub006] (Eterna round: R96, puzzle: Exclusion NG 3)
readoutUnit: µM
apparent KD of MS2 coat protein: 0.12

seqText: GAUUAAUGCAAGGAUAUGCUAUUAAUUUAUUUUGCAGAAGGUGCAACAUGAGGAUCACCCAUGUUGGAGGGUAU [JR_E6_Sub027] (Eterna round: R96, puzzle: Exclusion 6)
readoutUnit: µM
apparent KD of MS2 coat protein: 0.0178

seqText: AGUACUCUCACGAAAGUGAGAGUACAAAAAGCAAGUGAAACAUGAGGAUCACCCAUGUCCUCAUUUGCUCGUCUUAU [Mat - Sensor v2 -ver2- JL mod - D88] (Eterna round: R96, puzzle: Sensor v2, turn-off variant 2)
readoutUnit: µM
apparent KD of MS2 coat protein: 0.413

seqText: UUAAAUCAUGUAGGAUAUGCGUGGCGAAGCUAUGCAGAAGGACAUGAGGAUCACCCAUGUUCUAGCGUCUGCGUACAGAUGCGG [JL JSci mod] (Eterna round: R96, puzzle: Exclusion NG 1)
readoutUnit: µM
apparent KD of MS2 coat protein: 0.022

seqText: UACAUGAGGAUCACCCAUGUUUUGUCGUGUAUGGUAUUUAUCUAGGAUAUCAAUGUAGUUAUUUAUGAGAAGGAGAAUAUUAAU [JMF's solution 41] (Eterna round: R96, puzzle: Exclusion NG 3)
readoutUnit: µM
apparent KD of MS2 coat protein: 0.0375

Cited source: the supplement of paper PMC9170038
